Test system: EKVX NSCLC
Assay: NCI-60 one-dose screen, 48 h (100 = growth as untreated, 0 = no growth, -100 = all killed)
Conditions: 10 µM unless noted
Compounds without any hit were thinned out: in the full panel of roughly 83,000, 20% have a hit.
Entries and their growth values follow.

compound	uom	growth
COc1cccc(/C=N\NC(=O)c2ccncc2)c1O	%	78.8
Cc1cc(-c2ccccc2)cc(C)n1	%	116
CN1CCN(CCCOc2ccc3ncnc(Nc4ccc(OCc5cccc(F)c5)c(Cl)c4)c3c2)CC1	%	30.7
O=C(NCCCl)NCCN1c2nc3ccccc3cc2Sc2cc3ccccc3nc21	%	54.7
COc1ccc2c(c1)sc1nc(-c3ccc(N(C)C)cc3)cn12	%	101
N/C(=N\C(N)=N\c1nc2ccccc2s1)c1ccnc(Cl)c1	%	51.3
Cc1ccc(N/N=C(/C(=O)c2ccc(Cl)cc2)c2nc(C)cc(=O)[nH]2)cc1	%	91.5
NS(=O)(=O)c1ccc(-n2ncc3c(N/N=C/c4ccccc4)ncnc32)cc1	%	108
COc1ccc(-c2cc(-c3nnc(SCC(=O)Nc4ccc(C(C)=O)cc4)n3-c3ccccc3)c3ccccc3n2)cc1OC	%	97.7
CCCCCCCCCCN1CCC(N2CCCCC2)CC1	%	37.4
CC(=O)N1N=C(c2ccc(C(F)(F)F)cc2)CC1c1ccc2c(c1)OCO2 (stereo unspecified)	%	81.4

Origin of measurements: PubChem BioAssay (NCI)
